Provide the reported IC50 of each item.
SYSTEM_UNDER_TEST: human muscarinic M3 receptors (Homo sapiens (Human))
Sequence (P20309 whole entry): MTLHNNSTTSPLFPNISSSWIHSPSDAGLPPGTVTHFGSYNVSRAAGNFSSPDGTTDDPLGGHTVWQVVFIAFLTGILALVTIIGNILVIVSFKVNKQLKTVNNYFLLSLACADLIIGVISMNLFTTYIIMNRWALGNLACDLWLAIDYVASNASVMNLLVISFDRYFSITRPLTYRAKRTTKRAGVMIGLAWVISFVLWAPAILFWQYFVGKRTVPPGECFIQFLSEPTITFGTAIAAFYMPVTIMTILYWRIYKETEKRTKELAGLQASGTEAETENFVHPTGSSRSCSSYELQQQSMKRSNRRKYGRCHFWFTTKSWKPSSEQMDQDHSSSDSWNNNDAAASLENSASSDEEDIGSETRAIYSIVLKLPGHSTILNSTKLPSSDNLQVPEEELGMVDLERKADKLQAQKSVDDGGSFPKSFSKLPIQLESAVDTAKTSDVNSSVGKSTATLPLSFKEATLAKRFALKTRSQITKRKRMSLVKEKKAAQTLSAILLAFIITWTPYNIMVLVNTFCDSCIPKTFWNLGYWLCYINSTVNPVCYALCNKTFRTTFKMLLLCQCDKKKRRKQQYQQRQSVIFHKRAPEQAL

COMPOUND	IC50
CN(CCCn1c(=O)oc2cc(CCNC[C@H](O)c3ccc(O)c4[nH]c(=O)ccc34)ccc21)[C@H]1CC[C@H](OC(=O)C(O)(c2cccs2)c2cccs2)CC1 (relative stereo)	0.8 nM

Batch request: IC50 per item, same order as input.
1. CC(Cc1ccc(OCC(=O)NCCN[C@H]2CC[C@H](OC(=O)C(O)(c3cccs3)c3cccs3)CC2)cc1)NC[C@H](O)c1ccc(O)c2[nH]c(=O)ccc12 (relative stereo)
2. COc1cc(-c2noc(CCCN(C)[C@H]3CC[C@H](OC(=O)C(O)(c4cccs4)c4cccs4)CC3)n2)c(Cl)cc1CNC[C@H](O)c1ccc(O)c2[nH]c(=O)ccc12 (relative stereo)

3.6 nM
0.2 nM
